- Tested on: Fibroblast
- Assay overview: Multiplex assay against human fibroblast
- Assay type: toxicity, cell-based
- Condition: 12 h, 1 µM, compound concentration 1 uM, replicate 1
I'd appreciate it if you could supply Population Normal (%) values for the items below.
Note: a bare number is incomplete; add the unit.

Problem: Give the measured Population Normal (%) for CCCOc1ccc2[nH]cc(C3=CCNCC3)c2n1.Cl
Result: 97%

Problem: Give the measured Population Normal (%) for CCCCCC(O)/C=C/[C@H]1C(=O)CC(O)C1C/C=C\CCCC(=O)O (some centres undefined)
Result: 98%

Problem: Give the measured Population Normal (%) for Cc1cnc(-c2cc(N3CCN(C(=O)CCS(C)(=O)=O)CC3)ncc2Cl)c(C)c1
Result: 98%

Problem: Give the measured Population Normal (%) for COc1ccccc1N1CCN(C[C@@H](C(=O)NC(C)(C)C)c2ccccc2)CC1.Cl.Cl
Result: 97%

Problem: Give the measured Population Normal (%) for CC[C@@H](C)Nc1nc(C)nc2c(-c3ccc(OC)nc3C)c(C)nn12 [PEXACERFONT]
Result: 98%

Problem: Give the measured Population Normal (%) for CC(/C=C1\SC(=S)N(CCCC(=O)Nc2ccc(C(=O)O)c(O)c2)C1=O)=C\c1ccccc1
Result: 97%

Problem: Give the measured Population Normal (%) for CCc1cc2cc(NS(=O)(=O)c3ccc(C#N)cc3)ccc2n(CC)c1=O
Result: 98%

Problem: Give the measured Population Normal (%) for COC[C@@H](c1ccc(C(F)(F)F)cc1)N1CCN(C2(C)CCN(C(=O)c3c(C)ncnc3C)CC2)C[C@@H]1C.O=C(O)/C=C\C(=O)O [VICRIVIROC MALEATE]
Result: 95%

Problem: Give the measured Population Normal (%) for O=C1[C@H](Cc2ccc(O)cc2)N2C(=O)CCN(C(=O)NCc3ccccc3)[C@H]2CN1Cc1cccc2ccccc12
Result: 96%

---

- Test system: Fibroblast
- Assay overview: Multiplex assay against human fibroblast
- Assay type: toxicity, cell-based
- Condition: 48 h, 1 µM, compound concentration 1 uM, replicate 2
Classify: Satisfied when Population Apoptotic (%) is strictly less than 50%; Not satisfied when Population Apoptotic (%) is not.

Problem: Identify whether the compound Br.CS(=O)(=O)Nc1c(O)ccc2c1CCCC2C1=NCCN1 (centres undefined) records Population Apoptotic (%) below 50%.
Result: Satisfied

Problem: Identify whether the compound Cc1cccc(NC(=O)CN2CCC(c3ccccn3)CC2)c1.Cl.Cl records Population Apoptotic (%) below 50%.
Result: Not satisfied

Problem: Identify whether the compound O=C1[C@H](Cc2ccc(O)cc2)N2C(=O)CCN(C(=O)NCc3ccccc3)[C@H]2CN1Cc1cccc2ccccc12 records Population Apoptotic (%) below 50%.
Result: Not satisfied

Problem: Identify whether the compound Cc1c(CC(=O)O)c2cccnc2n1Cc1ccc(S(C)(=O)=O)cc1C(F)(F)F records Population Apoptotic (%) below 50%.
Result: Not satisfied

Problem: Identify whether the compound CCCCC(=O)N(Cc1ccc(-c2ccccc2-c2nnn[nH]2)cc1)[C@H](C(=O)O)C(C)C records Population Apoptotic (%) below 50%.
Result: Satisfied

Problem: Identify whether the compound CCc1cc2cc(NS(=O)(=O)c3ccc(C#N)cc3)ccc2n(CC)c1=O records Population Apoptotic (%) below 50%.
Result: Satisfied

Problem: Identify whether the compound O=C(CCCc1ccccc1)Nc1nc2ccccc2c(=O)s1 records Population Apoptotic (%) below 50%.
Result: Satisfied

Problem: Identify whether the compound COc1ccccc1N1CCN(C[C@@H](C(=O)NC(C)(C)C)c2ccccc2)CC1.Cl.Cl records Population Apoptotic (%) below 50%.
Result: Not satisfied

Problem: Identify whether the compound CCCCC1=NC2(CCCC2)C(=O)N1Cc1ccc(-c2ccccc2-c2nnn[nH]2)cc1 records Population Apoptotic (%) below 50%.
Result: Not satisfied

Problem: Identify whether the compound N#Cc1c(Oc2cccc(OS(=O)(=O)CCCC(F)(F)F)c2)cccc1C(F)(F)F records Population Apoptotic (%) below 50%.
Result: Satisfied

Problem: Identify whether the compound CC[C@@H](C)Nc1nc(C)nc2c(-c3ccc(OC)nc3C)c(C)nn12 records Population Apoptotic (%) below 50%.
Result: Satisfied

Problem: Identify whether the compound CC(/C=C1\SC(=S)N(CCCC(=O)Nc2ccc(C(=O)O)c(O)c2)C1=O)=C\c1ccccc1 records Population Apoptotic (%) below 50%.
Result: Satisfied

Problem: Identify whether the compound NCCc1cn(S(=O)(=O)c2c(Cl)nc3sccn23)c2ccccc12.O=C(O)C(=O)O records Population Apoptotic (%) below 50%.
Result: Not satisfied

Problem: Identify whether the compound COC[C@@H](c1ccc(C(F)(F)F)cc1)N1CCN(C2(C)CCN(C(=O)c3c(C)ncnc3C)CC2)C[C@@H]1C.O=C(O)/C=C\C(=O)O [VICRIVIROC MALEATE] records Population Apoptotic (%) below 50%.
Result: Not satisfied

Problem: Identify whether the compound CC(C)COc1ccc(CNC(=O)N(Cc2ccc(F)cc2)C2CCN(C)CC2)cc1 records Population Apoptotic (%) below 50%.
Result: Not satisfied

Problem: Identify whether the compound Cl.NCCc1ccc(O)c(O)c1 [DOPAMINE HYDROCHLORIDE] records Population Apoptotic (%) below 50%.
Result: Satisfied

Problem: Identify whether the compound CC(C)(C)c1cc(NC(=O)Nc2ccc(-c3cn4c(n3)sc3cc(OCCN5CCOCC5)ccc34)cc2)no1 records Population Apoptotic (%) below 50%.
Result: Satisfied

Problem: Identify whether the compound CCCCCC(O)/C=C/[C@H]1C(=O)CC(O)C1C/C=C\CCCC(=O)O (some centres undefined) records Population Apoptotic (%) below 50%.
Result: Satisfied

Problem: Identify whether the compound Cc1cnc(-c2cc(N3CCN(C(=O)CCS(C)(=O)=O)CC3)ncc2Cl)c(C)c1 records Population Apoptotic (%) below 50%.
Result: Satisfied

Problem: Identify whether the compound O=C(NCCN1CCC(n2c(=O)[nH]c3cc(Cl)ccc32)CC1)c1ccc(F)cc1 [HALOPEMIDE] records Population Apoptotic (%) below 50%.
Result: Satisfied

Problem: Identify whether the compound CCCOc1ccc2[nH]cc(C3=CCNCC3)c2n1.Cl records Population Apoptotic (%) below 50%.
Result: Not satisfied

Problem: Identify whether the compound CN(C)C(=O)Cn1cc(-c2ccc(-c3cncc4ccccc34)cc2)cn1 records Population Apoptotic (%) below 50%.
Result: Satisfied

Problem: Identify whether the compound COc1cccc2c1c(NS(=O)(=O)c1ccc(Cl)s1)nn2Cc1cccc(CNC(=O)C(C)(C)O)c1 records Population Apoptotic (%) below 50%.
Result: Not satisfied

Problem: Identify whether the compound Cc1onc(-c2ccccc2Cl)c1C(=O)N(C)c1ccc(Cl)cc1 records Population Apoptotic (%) below 50%.
Result: Satisfied

Problem: Identify whether the compound CC(C)c1noc(N2CCC(COc3ccc(-c4ccc(S(C)(=O)=O)cc4)nc3)CC2)n1 records Population Apoptotic (%) below 50%.
Result: Not satisfied
